Below, each of the binders is paired with its reported Kd value.
Target: T1, NFIL3 bZIP (long) (human, UniProt Q16649 65-161)
T1 sequence: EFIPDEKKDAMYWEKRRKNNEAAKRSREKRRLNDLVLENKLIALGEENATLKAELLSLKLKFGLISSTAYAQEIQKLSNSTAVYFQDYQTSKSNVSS
Assay: ITC; ITC: 20 mM Tris pH 7.5, 150 mM NaCl, 25 °C; EMSA: same buffer, 4 °C, 6% native gel in 0.5x TBE
Settings: protein: recombinant; tags: His6-SUMO removed by TEV; chain copies: 2; blunt
Give just the numeric value; µM need not be written.

Example results:
BINDER	Kd (µM)
TTgCGTAA (dsDNA) DNA 1: CATTGCGTAATG DNA 2: CATTACGCAATG	0.18
TcACGTAA (dsDNA) DNA 1: CATCACGTAATG DNA 2: CATTACGTGATG	1.66
mutated flanking DNA (dsDNA) DNA 1: CGTTACGTAATG DNA 2: CATTACGTAACG	0.067

## Task Given the entry TTACGTAA (dsDNA) DNA 1: CATTACGTAATG DNA 2: CATTACGTAATG , report its measured Kd.
## Result 0.042

## Task Given the entry TTGCGCAA (dsDNA) DNA 1: CATTGCGCAATG DNA 2: CATTGCGCAATG , report its measured Kd.
## Result 0.81

## Task Given the entry TTAmCGTAA (dsDNA, 5-methyl-C at position 6 of the printed strand; second strand not printed (palindrome, methylation of it not stated)) DNA 1: CATTACGTAATG DNA 2: CATTACGTAATG , report its measured Kd.
## Result 0.59

## Task Given the entry TTAtGTAA (dsDNA) DNA 1: CATTATGTAATG DNA 2: CATTACATAATG , report its measured Kd.
## Result 0.52

## Task Given the entry ccgCGTAA (dsDNA) DNA 1: CACCGCGTAATG DNA 2: CATTACGCGGTG , report its measured Kd.
## Result 6.89

## Task Given the entry cTACGTAA (dsDNA) DNA 1: CACTACGTAATG DNA 2: CATTACGTAGTG , report its measured Kd.
## Result 2.43

## Task Given the entry TTAaGTAA (dsDNA) DNA 1: CATTAAGTAATG DNA 2: CATTACTTAATG , report its measured Kd.
## Result 0.12
